Source of measurements: paper PMC6496756

- experimental_system: tubulin (alpha/beta heterodimer)
- Construct: purified goat brain tubulin; with alpha-tubulin/beta-tubulin heterodimer
- method_description: intrinsic tryptophan fluorescence quenching; also competition with colchicine and inhibition of tubulin polymerization
measured_attribute: Kd (µM)
Give the number; µM is assumed, so skip it.

# Kd lookup, item C/C1=C\CC(C)(C)/C=C/C(=O)/C(C)=C/CC1 [zerumbone] 4
